Reference for the values: ChEMBL document CHEMBL1136326

# Test system: Staphylococcus aureus
# experiment-notes: Minimal inhibitory concentration (antibacterial activity) against Staphylococcus aureus Oxford (SAUR)
# Format: functional
# condition-description: Staphylococcus aureus; read-out: MIC
value-type: MIC (µg/mL)

compound="Cc1ccccc1OCC(O)COc1ccc(/C=C2\\SC(=O)NC2=O)cc1 (stereo unspecified)" unit_of_measurement=µg/mL modifier_sign== recorded_value=64
compound="O=C1NC(=O)/C(=C/c2ccc(OCC(O)COc3ccccc3)cc2)S1 (stereo unspecified)" unit_of_measurement=µg/mL modifier_sign=> recorded_value=64
compound=CCCc1c(OCCCOc2ccc(/C=C3\SC(=O)NC3=O)cc2)ccc(Cl)c1Cl unit_of_measurement=µg/mL modifier_sign=> recorded_value=64
compound="CCCc1c(OCC(O)COc2ccc(CC3SC(=O)NC3=O)cc2)ccc(Cl)c1Cl (stereo unspecified)" unit_of_measurement=µg/mL modifier_sign== recorded_value=8
compound="CCCc1c(OCC(O)COc2ccc(/C=C3\\CC(=O)NC3=O)cc2)ccc(Cl)c1Cl (stereo unspecified)" unit_of_measurement=µg/mL modifier_sign=> recorded_value=64
compound="CCc1ccccc1OCC(O)COc1ccc(/C=C2\\SC(=O)NC2=O)cc1 (stereo unspecified)" unit_of_measurement=µg/mL modifier_sign== recorded_value=16

---

Reported MIC values for the following molecules.
# Test system: Staphylococcus aureus
# experiment-notes: Minimal inhibitory concentration (antibacterial activity) against Staphylococcus aureus Oxford (SAUR)
# Type: functional
# condition-description: Staphylococcus aureus; read-out: MIC
value-type: MIC (µg/mL)

molecule=CCCc1c(OCC(=O)COc2ccc(/C=C3\SC(=O)NC3=O)cc2)ccc(Cl)c1Cl assayed_system="Staphylococcus aureus" value_type=MIC modifier_sign=> recorded_value=64
molecule="CCCc1c(OCC(O)COc2ccc(/C=C3\\NC(=O)NC3=O)cc2)ccc(Cl)c1Cl (stereo not given)" assayed_system="Staphylococcus aureus" value_type=MIC modifier_sign== recorded_value=4
molecule="O=C1NC(=O)/C(=C/c2ccc(OCC(O)COc3ccc(Cl)c(Cl)c3)cc2)S1 (stereo not given)" assayed_system="Staphylococcus aureus" value_type=MIC modifier_sign=> recorded_value=64
molecule=CCCc1c(OC[C@H](O)COc2ccc(/C=C3\SC(=O)NC3=O)cc2)ccc(Cl)c1Cl assayed_system="Staphylococcus aureus" value_type=MIC modifier_sign== recorded_value=1
molecule="CCCc1cc(Cl)c(Cl)cc1OCC(O)COc1ccc(/C=C2\\SC(=O)NC2=O)cc1 (stereo not given)" assayed_system="Staphylococcus aureus" value_type=MIC modifier_sign== recorded_value=8

---

# experiment-notes: Minimal inhibitory concentration (antibacterial activity) against […] ERY2 (SPNE)
# Type: functional
# condition-description: Streptococcus pneumoniae; read-out: MIC
Reported MIC values for the following molecules.
value-type: MIC (µg/mL)

molecule="Cc1ccccc1OCC(O)COc1ccc(/C=C2\\SC(=O)NC2=O)cc1 (stereo not given)" modifier_sign== recorded_value=32
molecule="CCCc1c(OCC(N)COc2ccc(/C=C3\\SC(=O)NC3=O)cc2)ccc(Cl)c1Cl (stereo not given)" modifier_sign== recorded_value=2
molecule="CCCc1c(OCC(O)COc2ccc(/C=C3\\OC(=O)NC3=O)cc2)ccc(Cl)c1Cl (stereo not given)" modifier_sign== recorded_value=32
molecule="CCCc1c(OCC(O)COc2ccc(CC3SC(=O)NC3=O)cc2)ccc(Cl)c1Cl (stereo not given)" modifier_sign== recorded_value=8
molecule="CCc1ccccc1OCC(O)COc1ccc(/C=C2\\SC(=O)NC2=O)cc1 (stereo not given)" modifier_sign== recorded_value=16
molecule=CCCc1c(OC[C@@H](O)COc2ccc(/C=C3\SC(=O)NC3=O)cc2)ccc(Cl)c1Cl modifier_sign== recorded_value=2
molecule="CCCc1c(OCC(O)COc2ccc(/C=C3\\CC(=O)NC3=O)cc2)ccc(Cl)c1Cl (stereo not given)" modifier_sign== recorded_value=64
molecule="O=C1NC(=O)/C(=C/c2ccc(OCC(O)COc3ccc(Cl)c(Cl)c3)cc2)S1 (stereo not given)" modifier_sign=> recorded_value=64
molecule=CCCc1c(OCC(=O)COc2ccc(/C=C3\SC(=O)NC3=O)cc2)ccc(Cl)c1Cl modifier_sign=> recorded_value=64
molecule=CCCc1c(OCCCOc2ccc(/C=C3\SC(=O)NC3=O)cc2)ccc(Cl)c1Cl modifier_sign=> recorded_value=64
